Entries and their measured TGI follow.
test system: SNB-75 CNS; assay: NCI tumour cell line growth inhibition, 48 h
Reply numerically in µM, unit not repeated.

Below are worked cases with known answers.
Cc1ccc(S(=O)(=O)n2cc(C(=O)C(=O)Nc3ccncc3)c3ccccc32)cc1    16.3
C=C1CC(COc2ccc3ccc(=O)oc3c2)(c2ccccc2)OC1=O (stereo not drawn)    12.2

Entry Cc1ccnc2nc3[nH]c4ccccc4c3cc12 ; TGI = 85.8

Entry CC(Oc1ccc(Cl)cc1Cl)C(=O)NN1C(=O)CSC1c1ccc(Cl)cc1 (stereo not drawn) ; TGI = 72.7

---

system: COLO 205 colon; assay: NCI tumour cell line growth inhibition, 48 h
measured metric: TGI

Below are worked cases with known answers.
CCOC(=O)c1c(-c2ccccc2)[nH]c2ccc(Cl)cc2c1=O    > 100 µM
O=C1c2cccnc2C(=O)c2c1nc1ccccc1c2-c1cncc(-c2c3c(nc4ccccc24)C(=O)c2cccnc2C3=O)c1    0.617 µM

Case Cn1c2cccc3nnc4cccc(c4c32)n1C , COLO 205 colon, TGI recorded as > 100 µM

Values compiled from PubChem BioAssay (NCI).
